Recorded values, source ChEMBL document CHEMBL1250516.

inhibition at 10 µM by entry:
System tested: P-glycoprotein (ABCB1) (Homo sapiens)
Sequence (P08183 whole entry): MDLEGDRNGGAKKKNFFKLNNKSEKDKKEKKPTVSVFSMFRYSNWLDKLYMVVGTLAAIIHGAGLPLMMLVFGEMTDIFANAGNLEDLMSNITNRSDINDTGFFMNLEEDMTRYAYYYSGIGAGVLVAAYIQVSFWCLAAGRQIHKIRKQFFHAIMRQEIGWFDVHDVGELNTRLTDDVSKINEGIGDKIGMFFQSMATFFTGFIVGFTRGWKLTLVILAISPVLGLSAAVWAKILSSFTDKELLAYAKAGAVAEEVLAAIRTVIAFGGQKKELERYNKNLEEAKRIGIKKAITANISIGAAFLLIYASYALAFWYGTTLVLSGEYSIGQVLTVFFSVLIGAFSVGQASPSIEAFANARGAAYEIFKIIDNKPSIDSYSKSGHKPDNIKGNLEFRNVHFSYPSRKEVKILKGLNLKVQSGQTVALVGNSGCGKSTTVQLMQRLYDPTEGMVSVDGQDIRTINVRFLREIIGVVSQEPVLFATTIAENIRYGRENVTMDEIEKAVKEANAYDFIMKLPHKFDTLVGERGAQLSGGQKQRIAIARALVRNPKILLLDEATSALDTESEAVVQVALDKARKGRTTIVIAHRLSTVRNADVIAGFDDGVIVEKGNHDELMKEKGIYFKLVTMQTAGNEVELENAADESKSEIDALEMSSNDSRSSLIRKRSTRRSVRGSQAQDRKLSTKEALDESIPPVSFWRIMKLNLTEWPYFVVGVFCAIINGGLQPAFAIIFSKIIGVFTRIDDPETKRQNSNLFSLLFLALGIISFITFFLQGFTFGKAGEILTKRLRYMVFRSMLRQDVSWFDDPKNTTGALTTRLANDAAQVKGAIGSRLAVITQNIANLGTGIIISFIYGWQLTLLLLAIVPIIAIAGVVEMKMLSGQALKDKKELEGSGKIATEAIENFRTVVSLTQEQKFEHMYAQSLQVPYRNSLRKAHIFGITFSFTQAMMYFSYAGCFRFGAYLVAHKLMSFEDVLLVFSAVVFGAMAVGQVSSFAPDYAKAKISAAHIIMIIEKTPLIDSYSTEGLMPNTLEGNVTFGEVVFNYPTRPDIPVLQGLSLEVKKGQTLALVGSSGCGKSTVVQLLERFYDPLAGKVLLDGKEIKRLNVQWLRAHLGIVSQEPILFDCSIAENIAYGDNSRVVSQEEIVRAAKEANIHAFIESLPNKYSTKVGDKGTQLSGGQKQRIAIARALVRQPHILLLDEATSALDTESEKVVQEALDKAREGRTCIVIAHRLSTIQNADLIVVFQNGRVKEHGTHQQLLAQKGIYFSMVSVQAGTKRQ
Experimental protocol: Inhibition of p-glycoprotein expressed in human K562/R7 cells assessed as inhibition of drug efflux at 10 uM by flow cytometry
Type: cell-based
Condition parameters: K562/R7 cells expressing P-glycoprotein
Square brackets hold non-standard residues; d marks the D form. Peptide text beside a SMILES is read from it. * marks the point of attachment. Hyp = O=C(O)[C@@H]1C[C@@H](O)CN1; Cbz = O=C(OCc1ccccc1)*; Boc = CC(C)(C)OC(=O)*; OBn = c1ccc(CO*)cc1; Bn = c1ccc(C*)cc1; OtBu = CC(C)(C)O*
Remember to follow the number with its unit.

Solved cases (2 shown):
Compound: CC(C)(C)OC(=O)N[C@@H](CCCOC(=O)C1CCCCC1)C(=O)N[C@@H](CCCCNC(=O)OCc1ccccc1)C(=O)OC(C)(C)C
inhibition at 10 µM: 80.4%
--
Compound: CC(C)(C)OC(=O)[C@H](CCCCNC(=O)OCc1ccccc1)NC(=O)[C@@H]1C[C@@H](OCc2ccccc2)CN1C(=O)OC(C)(C)C (Boc-[Hyp](Bn)-Lys(Cbz)-OtBu)
inhibition at 10 µM: 83.5%

Then this compound:
Request: State its inhibition at 10 µM on P-glycoprotein (ABCB1) (Homo sapiens): CC(C)(C)OC(=O)N[C@@H](CC(=O)OCc1ccccc1)C(=O)N[C@@H](CCCCNC(=O)OCc1ccccc1)C(=O)OC(C)(C)C [REVERSIN 121] (Boc-Asp(OBn)-Lys(Cbz)-OtBu)
Result: 88%

* * *

System tested: MDR1 (P-glycoprotein, ABCB1) (Homo sapiens, UniProt P08183)
Sequence (P08183 whole entry): as the sequence (P08183 whole entry) above
Experimental protocol: Inhibition of human MDR1 expressed in mouse NIH3T3 cells assessed as inhibition of drug efflux in at 2 uM by flow cytometry
Assay type: cell-based
Condition parameters: mouse NIH3T3 cells expressing human MDR1
Square brackets hold non-standard residues; d marks the D form. Peptide text beside a SMILES is read from it. * marks the point of attachment. Hyp = O=C(O)[C@@H]1C[C@@H](O)CN1; Aad = N[C@@H](CCCC(=O)O)C(=O)O; Cbz = O=C(OCc1ccccc1)*; Boc = CC(C)(C)OC(=O)*; OBn = c1ccc(CO*)cc1; Bn = c1ccc(C*)cc1; OtBu = CC(C)(C)O*
Measurement kind: inhibition at 2 µM (%)
Express your answer in %, writing the number without its unit.

Solved cases (3 shown):
Molecule: CC(C)(C)OC(=O)CNC(=O)[C@H](Cc1ccc(OC(C)(C)C)cc1)NC(=O)OC(C)(C)C
inhibition at 2 µM, %: 38
//
Molecule: CC(C)(C)OC(=O)[C@H](CCCCNC(=O)OCc1ccccc1)NC(=O)[C@@H]1C[C@@H](OCc2ccccc2)CN1C(=O)OC(C)(C)C (Boc-[Hyp](Bn)-Lys(Cbz)-OtBu)
inhibition at 2 µM, %: 120
//
Molecule: CC(C)(C)OC(=O)[C@H](CCCCNC(=O)OCc1ccccc1)NC(=O)[C@@H]1C[C@@H](OCC2CCCCC2)CN1C(=O)OC(C)(C)C
inhibition at 2 µM, %: 82.2

Request: Reported inhibition at 2 µM, molecule CC(C)(C)OC(=O)N[C@@H](CCCOC(=O)C1CCCCC1)C(=O)N[C@@H](CCCCNC(=O)OCc1ccccc1)C(=O)OC(C)(C)C : ____
Result: 35.7

Request: Reported inhibition at 2 µM, molecule CC(C)(C)OC(=O)N[C@@H](CCCC(=O)OCc1ccccc1)C(=O)N[C@@H](CCCCNC(=O)OCc1ccccc1)C(=O)OC(C)(C)C (Boc-[Aad](OBn)-Lys(Cbz)-OtBu) : ____
Result: 37

* * *

System tested: MRP1 (multidrug resistance-associated protein 1) (Homo sapiens)
Sequence (P33527 whole entry): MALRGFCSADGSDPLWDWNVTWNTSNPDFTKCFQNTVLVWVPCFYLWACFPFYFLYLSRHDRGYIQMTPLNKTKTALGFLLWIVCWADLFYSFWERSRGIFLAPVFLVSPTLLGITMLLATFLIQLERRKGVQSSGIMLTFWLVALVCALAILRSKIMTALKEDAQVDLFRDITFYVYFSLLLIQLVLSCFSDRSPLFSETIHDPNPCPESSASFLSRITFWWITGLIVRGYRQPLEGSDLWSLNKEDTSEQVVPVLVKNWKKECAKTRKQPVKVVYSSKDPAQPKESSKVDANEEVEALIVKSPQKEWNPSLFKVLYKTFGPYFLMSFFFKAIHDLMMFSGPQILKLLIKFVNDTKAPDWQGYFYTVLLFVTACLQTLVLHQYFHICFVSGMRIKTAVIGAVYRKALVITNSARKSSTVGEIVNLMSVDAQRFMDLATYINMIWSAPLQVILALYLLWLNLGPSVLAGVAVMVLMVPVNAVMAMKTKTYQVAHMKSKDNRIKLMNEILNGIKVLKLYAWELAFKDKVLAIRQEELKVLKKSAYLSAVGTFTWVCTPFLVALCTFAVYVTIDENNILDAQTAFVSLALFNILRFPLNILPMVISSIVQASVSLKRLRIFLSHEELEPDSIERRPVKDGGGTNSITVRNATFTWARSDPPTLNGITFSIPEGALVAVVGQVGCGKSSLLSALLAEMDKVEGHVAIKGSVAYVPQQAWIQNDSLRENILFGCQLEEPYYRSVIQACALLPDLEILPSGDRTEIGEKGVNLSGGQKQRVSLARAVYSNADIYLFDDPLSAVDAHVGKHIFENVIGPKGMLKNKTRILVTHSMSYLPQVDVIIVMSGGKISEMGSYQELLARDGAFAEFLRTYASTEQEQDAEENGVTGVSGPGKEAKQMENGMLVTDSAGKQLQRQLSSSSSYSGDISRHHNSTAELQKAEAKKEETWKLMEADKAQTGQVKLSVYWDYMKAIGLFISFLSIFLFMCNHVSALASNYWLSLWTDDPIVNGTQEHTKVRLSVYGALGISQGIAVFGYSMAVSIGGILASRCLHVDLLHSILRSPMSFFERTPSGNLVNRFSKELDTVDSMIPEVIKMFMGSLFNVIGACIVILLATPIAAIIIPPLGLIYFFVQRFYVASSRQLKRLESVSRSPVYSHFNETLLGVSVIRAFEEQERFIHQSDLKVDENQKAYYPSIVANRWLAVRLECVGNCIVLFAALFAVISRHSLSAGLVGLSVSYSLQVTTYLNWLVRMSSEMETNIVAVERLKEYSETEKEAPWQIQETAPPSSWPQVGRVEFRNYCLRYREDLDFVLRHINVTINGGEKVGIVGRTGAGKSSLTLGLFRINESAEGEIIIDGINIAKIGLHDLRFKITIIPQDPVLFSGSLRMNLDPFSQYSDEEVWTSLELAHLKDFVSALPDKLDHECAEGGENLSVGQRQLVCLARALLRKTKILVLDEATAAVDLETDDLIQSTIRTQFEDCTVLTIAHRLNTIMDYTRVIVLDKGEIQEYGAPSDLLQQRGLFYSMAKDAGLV
Experimental protocol: Inhibition of MRP1 expressed in BHK cells assessed as inhibition of drug efflux at 10 uM
Assay type: cell-based
Condition parameters: hamster, BHK cells expressing MRP1
Square brackets hold non-standard residues; d marks the D form. Peptide text beside a SMILES is read from it. * marks the point of attachment. Hyp = O=C(O)[C@@H]1C[C@@H](O)CN1; Cbz = O=C(OCc1ccccc1)*; Boc = CC(C)(C)OC(=O)*; Bn = c1ccc(C*)cc1; OtBu = CC(C)(C)O*
Measurement kind: inhibition at 10 µM (%)
Express your answer in %, writing the number without its unit.

Compound: CC(C)(C)OC(=O)[C@H](CCCCNC(=O)OCc1ccccc1)NC(=O)[C@@H]1C[C@@H](OCc2ccccc2)CN1C(=O)OC(C)(C)C (Boc-[Hyp](Bn)-Lys(Cbz)-OtBu)
Measurement kind: inhibition at 10 µM
Reading unit: %
Assay value: 7

Then this compound:
Request: Reported inhibition at 10 µM, compound CC(C)(C)OC(=O)[C@H](CCCCNC(=O)OCc1ccccc1)NC[C@@H]1C[C@@H](OCc2ccccc2)CN1C(=O)OC(C)(C)C : ____
Result: 9

* * *

System tested: MDR1 (P-glycoprotein, ABCB1) (Homo sapiens, UniProt P08183)
Experimental protocol: Inhibition of human MDR1 expressed in mouse NIH3T3 cells assessed as inhibition of drug efflux in at 10 uM by flow cytometry
Format: cell-based
Condition parameters: mouse NIH3T3 cells expressing human MDR1
Square brackets hold non-standard residues; d marks the D form. Peptide text beside a SMILES is read from it. * marks the point of attachment. Hyp = O=C(O)[C@@H]1C[C@@H](O)CN1; Cbz = O=C(OCc1ccccc1)*; PhAc = O=C(Cc1ccccc1)*; Boc = CC(C)(C)OC(=O)*; OBn = c1ccc(CO*)cc1; OtBu = CC(C)(C)O*; tBu = CC(C)(C)*
Returns one of condition met or condition not met; condition met when inhibition at 10 µM is >= 80%.

Reference set, count: 8
Compound: O=C(CCC(=O)N[C@@H](CCC(=O)OCc1ccccc1)C(=O)OCc1ccccc1)N[C@@H](CCC(=O)OCc1ccccc1)C(=O)OCc1ccccc1 [REVERSIN 213]
System tested: MDR1 (P-glycoprotein, ABCB1) (Homo sapiens, UniProt P08183)
Discrete label: condition not met
//
Compound: CC(C)(C)OC(=O)CNC(=O)[C@H](Cc1ccc(OC(C)(C)C)cc1)NC(=O)OC(C)(C)C
System tested: MDR1 (P-glycoprotein, ABCB1) (Homo sapiens, UniProt P08183)
Discrete label: condition met
//
Compound: CC(C)(C)OC(=O)C/C=C/[C@H](Cc1ccc(OC(C)(C)C)cc1)NC(=O)OC(C)(C)C
System tested: MDR1 (P-glycoprotein, ABCB1) (Homo sapiens, UniProt P08183)
Discrete label: condition not met
//
Compound: CC(C)(C)OC(=O)N[C@@H](CCOC(=O)C1CCCCC1)C(=O)N[C@@H](CCCCNC(=O)OCc1ccccc1)C(=O)OC(C)(C)C
System tested: MDR1 (P-glycoprotein, ABCB1) (Homo sapiens, UniProt P08183)
Discrete label: condition not met
//
Compound: CC(C)(C)OC(=O)[C@H](CCCCNC(=O)OCc1ccccc1)NC(=O)[C@@H]1C[C@@H](OC(=O)Cc2ccccc2)CN1C(=O)OC(C)(C)C (Boc-[Hyp](PhAc)-Lys(Cbz)-OtBu)
System tested: MDR1 (P-glycoprotein, ABCB1) (Homo sapiens, UniProt P08183)
Discrete label: condition not met
//
Compound: CC(C)(C)OC(=O)[C@H](CCCCNC(=O)OCc1ccccc1)NC(=O)[C@@H]1C[C@@H](OCC2CCCCC2)CN1C(=O)OC(C)(C)C
System tested: MDR1 (P-glycoprotein, ABCB1) (Homo sapiens, UniProt P08183)
Discrete label: condition not met
//
Compound: CC(C)(C)OC(=O)CC[C@H](NC(=O)OC(C)(C)C)C(=O)N[C@@H](CCCCNC(=O)OCc1ccccc1)C(=O)OC(C)(C)C (Boc-Glu(OtBu)-Lys(Cbz)-OtBu)
System tested: MDR1 (P-glycoprotein, ABCB1) (Homo sapiens, UniProt P08183)
Discrete label: condition not met
//
Compound: CC(C)(C)OC(=O)CC(C(O)[C@H](Cc1ccc(OC(C)(C)C)cc1)NC(=O)OC(C)(C)C)S(=O)(=O)c1ccccc1 (stereo partly drawn)
System tested: MDR1 (P-glycoprotein, ABCB1) (Homo sapiens, UniProt P08183)
Discrete label: condition met

Request: Please indicate if the recorded inhibition at 10 µM for CC(C)(C)OC(=O)N[C@@H](CC(=O)OCc1ccccc1)C(=O)N[C@@H](CCCCNC(=O)OCc1ccccc1)C(=O)OC(C)(C)C [REVERSIN 121] (Boc-Asp(OBn)-Lys(Cbz)-OtBu) meets or exceeds 80%.
Result: condition not met

Request: Please indicate if the recorded inhibition at 10 µM for CC(C)(C)OC(=O)N[C@@H](Cc1ccc(OC(C)(C)C)cc1)C(=O)N[C@@H](CCCCNC(=O)OCc1ccccc1)C(=O)OC(C)(C)C (Boc-Tyr(tBu)-Lys(Cbz)-OtBu) meets or exceeds 80%.
Result: condition not met

Request: Please indicate if the recorded inhibition at 10 µM for CC(C)(C)OC(=O)CC(C(=O)[C@H](Cc1ccc(OC(C)(C)C)cc1)NC(=O)OC(C)(C)C)S(=O)(=O)c1ccccc1 (stereo partly drawn) meets or exceeds 80%.
Result: condition met

Request: Please indicate if the recorded inhibition at 10 µM for CC(C)(C)OC(=O)N[C@@H](CC(=O)OCc1ccccc1)C(=O)C[C@H](CCCCNC(=O)OCc1ccccc1)C(=O)OCc1ccccc1 meets or exceeds 80%.
Result: condition not met

Request: Please indicate if the recorded inhibition at 10 µM for CC(C)(C)OC(=O)N[C@@H](CCOCc1ccccc1)C(=O)N[C@@H](CCCCNC(=O)OCc1ccccc1)C(=O)OC(C)(C)C meets or exceeds 80%.
Result: condition not met

Request: Please indicate if the recorded inhibition at 10 µM for CC(C)(C)OC(=O)N[C@@H](CCC(=O)OCc1ccccc1)C(=O)N[C@@H](CCCCNC(=O)OCc1ccccc1)C(=O)OC(C)(C)C (Boc-Glu(OBn)-Lys(Cbz)-OtBu) meets or exceeds 80%.
Result: condition not met

Request: Please indicate if the recorded inhibition at 10 µM for CC(C)(C)OC(=O)N[C@@H](CC(=O)OCc1ccccc1)C(=O)CCC(=O)N[C@@H](CCCCNC(=O)OCc1ccccc1)C(=O)OC(C)(C)C meets or exceeds 80%.
Result: condition not met
